system: T1, rat albumin (rat, UniProt P02770 25-608)
T1 construct: bought (Sigma); also called rat SA; RSA
T1 sequence (P02770 25-608 limits assumed): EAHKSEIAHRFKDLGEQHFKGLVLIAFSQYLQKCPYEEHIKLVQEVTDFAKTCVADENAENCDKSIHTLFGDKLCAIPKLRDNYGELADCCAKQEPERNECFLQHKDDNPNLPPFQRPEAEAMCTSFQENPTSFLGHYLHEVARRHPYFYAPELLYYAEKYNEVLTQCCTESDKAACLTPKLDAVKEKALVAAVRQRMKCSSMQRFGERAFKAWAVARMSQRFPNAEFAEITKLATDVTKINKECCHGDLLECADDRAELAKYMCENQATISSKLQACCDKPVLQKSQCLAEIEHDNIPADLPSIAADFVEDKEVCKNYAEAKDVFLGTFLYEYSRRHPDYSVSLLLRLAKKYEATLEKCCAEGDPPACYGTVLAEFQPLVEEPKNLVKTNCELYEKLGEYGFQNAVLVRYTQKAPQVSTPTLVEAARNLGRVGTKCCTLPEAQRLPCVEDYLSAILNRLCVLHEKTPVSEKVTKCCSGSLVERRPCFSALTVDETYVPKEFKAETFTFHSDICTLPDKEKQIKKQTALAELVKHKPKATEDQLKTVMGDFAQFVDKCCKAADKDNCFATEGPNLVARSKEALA
experiment: SA08b competition ELISA
Bridges are numbered along the chain shown (N, C = ends). Where no end group is shown, it is not given here.
reportedMetric: pIC50
One number for each entry, as −log10 of the molar value.

stdin: Report pIC50 for QRLMEDICLPRWGCLWEDDF-NH2 (disulfide 8-14, synthetic; disulfide oxidised) [SA06] please.
stdout: 7.17

Attribution: patent US20070202045A1
